Reference for the values: the supplement of paper PMC11451515

system: P12-Ichikawa; assay: cell viability relative to DMSO control; higher = less cytotoxic; details: RPMI 5 mM glucose + 10% FBS; 48 h; 1.71 µM
TEST_READOUT: cell viability (%)
Quick reminder: number only, in %, skip the unit.

Below, each entry is followed by its recorded cell viability result.
Nc1ncnc2c1c(-c1cnc3[nH]ccc3c1)nn2C1CCCC1 :: 63.5
CC(N)C12CC3CC(CC(C3)C1)C2 (centres undefined) :: 112
C=C[C@H]1CN2CC[C@H]1C[C@H]2[C@H](O)c1ccnc2ccc(OC)cc12 :: 109

Which measured cell viability value corresponds to Nc1nc(N)c2nc(CNc3ccc(C(=O)NC(CCC(=O)O)C(=O)O)cc3)cnc2n1 (centres undefined) ?
47

----------
system: NOMO1; assay: cell viability relative to DMSO control; higher = less cytotoxic; settings: RPMI 5 mM glucose + 10% dialyzed FBS; 48 h; 46.1 µM
TEST_READOUT: cell viability (%)
Number only, in %; omit the unit.

Answered examples (6):
CC1(C)O[C@@H]2C[C@H]3[C@@H]4CCC5=CC(=O)C=C[C@]5(C)[C@H]4[C@@H](O)C[C@]3(C)[C@]2(C(=O)CO)O1 :: 103
CN(NC(=O)CC(=O)NN(C)C(=S)c1ccccc1)C(=S)c1ccccc1 :: 9.44
COc1ccc(C2CNC(=O)C2)cc1OC1CCCC1 (centres undefined) :: 94.9
OC1=CC2=C(C(=C1)O)C(=O)\C=C(/O2)C3=CC=CC=C3 :: 27.6
O=C(Nc1c(Cl)cncc1Cl)c1ccc(OC(F)F)c(OCC2CC2)c1 :: 102
Cc1cc2c(F)c(Oc3ncnn4cc(OC[C@@H](C)O)c(C)c34)ccc2[nH]1 :: 67.1

Form: Entry = `Cc1cccc(Nc2nc(-c3ccncc3)cs2)c1` | System = NOMO1 | cell viability = ____
107

For the record `CC/1=C(/N2[C@H](SC1)[C@H](NC(=O)[C@H](N)\C3=C\C\C=C/C3)C2=O)C(O)=O` , what value of cell viability is listed for NOMO1?
118

Observed cell viability on NOMO1 for `COc1cc2ncnc(Nc3ccc(F)c(Cl)c3)c2cc1NC(=O)/C=C/CN1CCCCC1` , please.
72.9

----------
Recorded cell viability, one value per entry.
test system: SEM cells; assay: cell viability relative to DMSO control; higher = less cytotoxic; details: RPMI 5 mM glucose + 10% FBS; 48 h; 0.0211 µM
Numeric answer only, unit % assumed.

Reference set (5 entries):
FC(F)c1nc2ccccc2n1-c1nc(N2CCOCC2)nc(N2CCOCC2)n1 :: 84.4
CC(C)CC(=O)N[C@H](C(=O)N[C@H](C(=O)N[C@@H](CC(C)C)[C@@H](O)CC(=O)N[C@@H](C)C(=O)N[C@@H](CC(C)C)[C@@H](O)CC(=O)O)C(C)C)C(C)C :: 94.7
CNC[C@H](O)c1ccc(O)c(O)c1 :: 73.1
C[C@@H]1[C@H](O)[C@@H](C)/C=C/C=C/C=C/C=C/C=C/C=C/C=C/[C@H](O[C@@H]2O[C@H](C)[C@@H](O)[C@H](N)[C@@H]2O)C[C@@H]2O[C@](O)(C[C@@H](O)C[C@@H](O)[C@H](O)CC[C@@H](O)C[C@@H](O)CC(=O)O[C@H]1C)C[C@H](O)[C@H]2C(=O)O :: 107
C[S+]([O-])(=O)C1=CC=C(C=C1)C/2=C(/C(=O)OC2)C3=CC=CC=C3 :: 119

Notebook: pull reported cell viability for SEM cells, entry `COc1ccc(-n2nc(C(N)=O)c3c2C(=O)N(c2ccc(N4CCCCC4=O)cc2)CC3)cc1`
124
